IC50 listing for selected compounds.
Molecular target: CCR4 receptor (Homo sapiens, UniProt P51679)
Construct: beta-galactosidase enzyme-fragment tag; From own knowledge, PathHunter uses a ProLink/enzyme-donor fragment, usually at the receptor's C-terminus
Sequence (P51679 whole entry, the tested form may be a part): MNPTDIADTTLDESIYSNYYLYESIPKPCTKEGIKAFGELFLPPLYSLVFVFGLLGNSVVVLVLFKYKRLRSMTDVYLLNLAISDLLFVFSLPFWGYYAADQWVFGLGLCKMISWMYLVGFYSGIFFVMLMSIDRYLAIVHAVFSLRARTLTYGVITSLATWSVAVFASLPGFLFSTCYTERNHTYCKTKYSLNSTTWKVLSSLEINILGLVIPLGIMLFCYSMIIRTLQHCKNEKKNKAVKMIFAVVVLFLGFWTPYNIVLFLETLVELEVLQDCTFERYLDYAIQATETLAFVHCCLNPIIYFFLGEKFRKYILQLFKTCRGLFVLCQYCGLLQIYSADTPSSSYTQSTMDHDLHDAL
Assay: CCR4 antagonist activity in Beta-Arrestin Cellular Assay (PathHunter, CCL22 challenge)
Conditions: CHO-K1 cells expressing the CCR4 receptor; CCL22 at EC80 (15 nM), 90 minutes; 30 min pre-incubation; read-out: Potency (CCR4 antagonist IC50 in the β-arrestin assay)

// query Given the compound `C[C@@H](Nc1cc(N2CCC([C@H]3CCCN(CCO)C3)CC2)nc2ncnn12)c1ccc(Cl)cc1Cl` , write its reported IC50.
// result < 100 nM

// query Given the compound `C[C@@H](Nc1cc(N2CCC([C@H]3CCCN(Cc4ncc[nH]4)C3)CC2)nc2ncnn12)c1ccc(Cl)cc1Cl` , write its reported IC50.
// result < 100 nM

// query Given the compound `Cc1cc(F)ccc1[C@@H](C)Nc1cc(N2CCC([C@H]3CCCN([C@H]4C[C@](C)(C(=O)O)C4)C3)CC2)nc2ncnn12` , write its reported IC50.
// result 100 to 500 nM

###

Molecular target: CCR4 receptor (Homo sapiens)
Construct: beta-galactosidase enzyme-fragment tag; From own knowledge, PathHunter uses a ProLink/enzyme-donor fragment, usually at the receptor's C-terminus
Assay: CCR4 antagonist activity in Beta-Arrestin Cellular Assay (PathHunter, CCL22 challenge)
Conditions: CHO-K1 cells expressing the CCR4 receptor; CCL22 at EC80 (15 nM), 90 minutes; 30 min pre-incubation; read-out: Potency (CCR4 antagonist IC50 in the β-arrestin assay)
pIC50: −log10 of the molar value.
QUANTITY_MEASURED: pIC50

{"MOLECULE": "C[C@@H](Nc1cc(N2CCC([C@H]3CCCN(Cc4nc[nH]n4)C3)CC2)nc2ncnn12)c1ccc(Cl)cc1Cl [Example 5]", "TARGET_SYSTEM": "CCR4 receptor (Homo sapiens)", "QUANTITY_MEASURED": "pIC50", "RESULT": "> 7.00"}
{"MOLECULE": "C[C@@H](Nc1cc(N2CCC([C@H]3CCCN([C@H]4C[C@](C)(C(=O)O)C4)C3)CC2)nc2nccn12)c1ccc(Cl)cc1F [Example 27]", "TARGET_SYSTEM": "CCR4 receptor (Homo sapiens)", "QUANTITY_MEASURED": "pIC50", "RESULT": "> 7.00"}
{"MOLECULE": "C[C@@H](Nc1cc(N2CCC([C@H]3CCCN(CCCO)C3)CC2)nc2ncnn12)c1ccc(Cl)cc1Cl [Example 22]", "TARGET_SYSTEM": "CCR4 receptor (Homo sapiens)", "QUANTITY_MEASURED": "pIC50", "RESULT": "> 7.00"}
{"MOLECULE": "C[C@@H](Nc1cc(N2CCC([C@H]3CCCN(CCS(N)(=O)=O)C3)CC2)nc2ncnn12)c1ccc(Cl)cc1Cl [Example 19]", "TARGET_SYSTEM": "CCR4 receptor (Homo sapiens)", "QUANTITY_MEASURED": "pIC50", "RESULT": "> 7.00"}
{"MOLECULE": "C[C@@H](Nc1cc(N2CCC([C@H]3CCCN(CC(F)(F)F)C3)CC2)nc2ncnn12)c1ccc(Cl)cc1Cl [Example 7]", "TARGET_SYSTEM": "CCR4 receptor (Homo sapiens)", "QUANTITY_MEASURED": "pIC50", "RESULT": "< 6.30"}

// query Determine reported pIC50 for C[C@@H](Nc1cc(N2CCC([C@H]3CCCN(CCC(=O)O)C3)CC2)nc2ncnn12)c1ccc(Cl)cc1Cl [Example 14] ; test system: CCR4 receptor (Homo sapiens).
// result > 7.00

// query Determine reported pIC50 for C[C@@H](Nc1cc(N2CCC([C@H]3CCCN([C@H]4C[C@](C)(C(=O)O)C4)C3)CC2)nc2ncnn12)c1ccc(F)cc1Cl [Example 26] ; test system: CCR4 receptor (Homo sapiens).
// result > 7.00

// query Determine reported pIC50 for Cc1cc(F)ccc1[C@@H](C)Nc1cc(N2CCC([C@H]3CCCN([C@H]4C[C@](C)(C(=O)O)C4)C3)CC2)nc2ccnn12 [Example 29] ; test system: CCR4 receptor (Homo sapiens).
// result > 7.00
